target: human dopamine D2Long (D2L) receptors (Homo sapiens, UniProt P14416)
Sequence (P14416 whole entry): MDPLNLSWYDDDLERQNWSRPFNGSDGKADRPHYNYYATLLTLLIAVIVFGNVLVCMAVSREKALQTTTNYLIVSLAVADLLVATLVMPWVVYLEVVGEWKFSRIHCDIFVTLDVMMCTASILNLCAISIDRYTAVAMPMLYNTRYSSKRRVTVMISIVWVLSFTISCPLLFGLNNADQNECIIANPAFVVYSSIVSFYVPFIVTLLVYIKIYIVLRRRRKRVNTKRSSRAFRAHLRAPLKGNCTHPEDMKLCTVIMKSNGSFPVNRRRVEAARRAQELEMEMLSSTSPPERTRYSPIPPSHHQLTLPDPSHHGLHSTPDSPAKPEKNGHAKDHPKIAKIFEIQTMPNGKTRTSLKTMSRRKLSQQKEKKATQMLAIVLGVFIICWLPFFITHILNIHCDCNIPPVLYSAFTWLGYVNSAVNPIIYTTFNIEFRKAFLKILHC
pKi: −log10 of the molar value. Counter-ions that a name gives are not always drawn.
ASSAY_ENDPOINT: pKi

COMPOUND: CNC[C@@H]1O[C@H](C2CCN(CCc3ccccc3)CC2)Cc2c1ccc(C)c2O [Example 94, dihydrochloride]
pKi: 6.55

1: CCCCN(CCCC)C(=O)N1CCC([C@@H]2Cc3c(ccc(C)c3O)[C@H](CN)O2)CC1 [Example 139, hydrochloride]
2: Cc1ccc2c(c1O)C[C@@H](C1CCN(Cc3ccc4ccccc4n3)CC1)O[C@H]2CN [Example 55, dihydrochloride]
**Q:** Between 1 and 2 , which one shows the larger pKi value? When you have decided, please share the label of that item.
**A:** 1
(1: 6.69, 2: 6.35)

###

biological target: human dopamine D1 receptor (Homo sapiens); construct: A 1.4 Kb Hind III to Xho I fragment was subcloned into the vector pMMLV; expressed in transfected cells; host or cells: CHO cells, clone CHO-D1M#9 (plasmid pHD1MMLV), membranes; assay: [3H]-SCH-23390 binding to cloned human dopamine D1 receptors (CHO cell membranes); conditions: competitive binding, [3H]-SCH-23390, cloned human D1 in CHO membranes; read-out: D1 affinity Ki
Counter-ions that a name gives are not always drawn.
ASSAY_ENDPOINT: Ki (nM)

Consider the reported Ki for these compounds:
COMPOUND: CNC[C@@H]1O[C@H](C2CCN(Cc3ccc(F)cc3)CC2)Cc2c1ccc(C)c2O [Example 95, dihydrochloride]
READING_UNIT: nM
Ki: 121
//
COMPOUND: Cc1ccc2c(c1O)C[C@@H](C1CCN(Cc3cccc4ccccc34)CC1)O[C@H]2CN [Example 39, dihydrochloride]
READING_UNIT: nM
Ki: 113

a: COC(=O)N1CCC([C@@H]2Cc3c(ccc(C)c3O)[C@H](CN)O2)CC1 [Example 112, hydrochloride]
b: Cc1ccc2c(c1O)C[C@@H](C1CCN(Cc3cc(F)cc(C(F)(F)F)c3)CC1)O[C@H]2CN [Example 84, dihydrochloride]
**Q:** Between a and b , which one shows the larger Ki value? When you have decided, please share the label of that item.
**A:** a

###

molecular target: human dopamine D1 receptor (Homo sapiens); construct: A 1.4 Kb Hind III to Xho I fragment was subcloned into the vector pMMLV; expressed in transfected cells; host or cells: CHO cells, clone CHO-D1M#9 (plasmid pHD1MMLV), membranes; assay: [3H]-SCH-23390 binding to cloned human dopamine D1 receptors (CHO cell membranes); conditions: competitive binding, [3H]-SCH-23390, cloned human D1 in CHO membranes; read-out: D1 affinity Ki
Counter-ions that a name gives are not always drawn.
ASSAY_ENDPOINT: Ki (nM)

Consider the reported Ki for these compounds:
COMPOUND: Cc1ccc2c(c1O)C[C@@H](C1CCN(C(=O)OCc3ccccc3)CC1)O[C@H]2CN [Example 122, hydrochloride]
Ki [nM]: 92
//
COMPOUND: Cc1ccc2c(c1O)C[C@@H](C1CCN(CC(c3ccccc3)c3ccccc3)CC1)O[C@H]2CN [Example 28, dihydrobromide]
Ki [nM]: 82
//
COMPOUND: Cc1ccc2c(c1O)C[C@@H](C1CCN(S(=O)(=O)Cc3ccccc3)CC1)O[C@H]2CN [Example 142, hydrochloride]
Ki [nM]: 18

A: CNC[C@@H]1O[C@H](C2CCN(Cc3ccc(-c4ccccc4)cc3)CC2)Cc2c1ccc(C)c2O [Example 98, dihydrochloride]
B: Cc1ccc2c(c1O)C[C@@H](C1CCN(Cc3cc(C(F)(F)F)ccc3F)CC1)O[C@H]2CN [Example 81, dihydrochloride]
**Q:** # min-compare on Ki between A and B When you have decided, please share the label of that item.
**A:** B
(B: 28.7 nM, A: 60.3 nM)

###

Molecular target: D1 receptor (Homo sapiens)
Construct: expressed in transfected cells; host or cells: D1 transfected CHO cell line
Assay: D1 Activation Adenylyl Cyclase Assay (cAMP FlashPlate, D1 transfected CHO cell line)
Type: cell-based
Conditions: agonist activity at the D1 receptor, adenylate cyclase assay, D1 transfected CHO cell line; read-out: D1 EC50
Procedure: D1 Activation Adenylyl Cyclase Assay Purpose: To measure D1-agonist activity compounds using an Adenylyl Cyclase Activation Flash Plate Assay from NEN. Buffers: Activation and Detection buffers are provided from NEN: Catalog # SMP004A. Maintenance of D1 transfected CHO cell line: • 1. Cells are grown in a 150 cc flask in an incubator at 37° C. with 5% CO2 for 2-3 days (4 maximum) until confluent. • 2. Aspirate off old media (Cells adhere to the plastic flask), wash 2× with sterile PBS. • 3. […]
Structures can show the parent of a compound that is named as a salt.
ASSAY_ENDPOINT: EC50 (nM)

Consider the reported EC50 for these compounds:
COMPOUND: Cc1ccc2c(c1O)C[C@@H](C1CCN(C(=O)Nc3ccc(F)cc3)CC1)O[C@H]2CN [Example 128, hydrochloride]
TESTED_SYSTEM: D1 receptor (Homo sapiens)
ASSAY_ENDPOINT: EC50
READING_UNIT: nM
EXPERIMENTAL_VALUE: 6000
//
COMPOUND: Cc1ccc2c(c1O)C[C@@H](C1CCN(S(=O)(=O)CC(F)(F)F)CC1)O[C@H]2CN [Example 157, hydrochloride]
TESTED_SYSTEM: D1 receptor (Homo sapiens)
ASSAY_ENDPOINT: EC50
READING_UNIT: nM
EXPERIMENTAL_VALUE: 460
//
COMPOUND: Cc1ccc2c(c1O)C[C@@H](C1CCN(Cc3cnc4ccccc4c3)CC1)O[C@H]2CN [Example 56, dihydrochloride]
TESTED_SYSTEM: D1 receptor (Homo sapiens)
ASSAY_ENDPOINT: EC50
READING_UNIT: nM
EXPERIMENTAL_VALUE: 12
//
COMPOUND: Cc1ccc2c(c1O)C[C@@H](C1CCN(Cc3ccc(Cl)c(C(F)(F)F)c3)CC1)O[C@H]2CN [Example 78, dihydrochloride]
TESTED_SYSTEM: D1 receptor (Homo sapiens)
ASSAY_ENDPOINT: EC50
READING_UNIT: nM
EXPERIMENTAL_VALUE: 2
//
COMPOUND: Cc1ccc2c(c1O)C[C@@H](C1CCN(Cc3cccc(Cl)c3)CC1)O[C@H]2CN [Example 37, dihydrobromide]
TESTED_SYSTEM: D1 receptor (Homo sapiens)
ASSAY_ENDPOINT: EC50
READING_UNIT: nM
EXPERIMENTAL_VALUE: 110
//
COMPOUND: Cc1ccc2c(c1O)C[C@@H](C1CCN(CCNC(=O)Nc3ccc(F)cc3)CC1)O[C@H]2CN [Example 192, dihydrobromide]
TESTED_SYSTEM: D1 receptor (Homo sapiens)
ASSAY_ENDPOINT: EC50
READING_UNIT: nM
EXPERIMENTAL_VALUE: 11

I: CNC[C@@H]1O[C@H](C2CCN(CCc3ccccc3)CC2)Cc2c1ccc(C)c2O [Example 94, dihydrochloride]
II: Cc1ccc(CN2CCC([C@@H]3Cc4c(ccc(C)c4O)[C@H](CN)O3)CC2)cc1 [Example 66, dihydrochloride]
**Q:** Between I and II , which one shows the larger EC50 value? When you have decided, please share the label of that item.
**A:** I
(I: 35 nM, II: 6 nM)

1: COc1ccc(CN2CCC([C@@H]3Cc4c(ccc(C)c4O)[C@H](CN)O3)CC2)cc1 [Example 61, dihydrochloride]
2: COc1cccc(CN2CCC([C@@H]3Cc4c(ccc(C)c4O)[C@H](CN)O3)CC2)c1 [Example 31, dihydrochloride]
**Q:** # min-compare on EC50 between 1 and 2 When you have decided, please share the label of that item.
**A:** 2
(2: 13 nM, 1: 47 nM)

A: Cc1ccc2c(c1O)C[C@@H](C1CCN(CCC(C)NC(=O)c3ccc(F)cc3)CC1)O[C@H]2CN (some centres unmarked) [Example 22, dihydrochloride]
B: Cc1ccc2c(c1O)C[C@@H](C1CCN(Cc3ccccc3)CC1)O[C@H]2CN [Example 93, dihydrobromide]
**Q:** Between A and B , which one shows the larger EC50 value? When you have decided, please share the label of that item.
**A:** B

###

target: D1 receptor (Homo sapiens, UniProt P21728); construct: expressed in transfected cells; host or cells: D1 transfected CHO cell line; assay: D1 Activation Adenylyl Cyclase Assay (cAMP FlashPlate, D1 transfected CHO cell line); format: cell-based; conditions: agonist activity at the D1 receptor, adenylate cyclase assay, D1 transfected CHO cell line; read-out: D1 EC50
Sequence (P21728 whole entry, the tested form may be a part): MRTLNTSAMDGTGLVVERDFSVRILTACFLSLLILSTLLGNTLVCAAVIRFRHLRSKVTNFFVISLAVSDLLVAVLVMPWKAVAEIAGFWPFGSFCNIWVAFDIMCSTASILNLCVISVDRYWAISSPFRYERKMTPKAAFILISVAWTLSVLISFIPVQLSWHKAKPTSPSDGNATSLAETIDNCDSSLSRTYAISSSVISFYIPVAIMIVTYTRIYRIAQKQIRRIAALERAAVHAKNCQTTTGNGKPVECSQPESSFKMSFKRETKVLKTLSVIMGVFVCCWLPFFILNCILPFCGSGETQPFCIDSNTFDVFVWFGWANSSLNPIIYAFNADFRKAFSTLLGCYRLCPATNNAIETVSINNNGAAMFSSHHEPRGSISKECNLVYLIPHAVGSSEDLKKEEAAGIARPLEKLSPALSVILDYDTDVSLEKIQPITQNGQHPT
pEC50: −log10 of the molar value. Structures can show the parent of a compound that is named as a salt.
ASSAY_ENDPOINT: pEC50

Consider the reported pEC50 for these molecules:
MOLECULE: Cc1ccc2c(c1O)C[C@@H](C1CCN(S(=O)(=O)N3CCc4ccccc4C3)CC1)O[C@H]2CN [Example 167, hydrochloride]
TESTED_SYSTEM: D1 receptor (Homo sapiens, UniProt P21728)
pEC50: 7.11

MOLECULE: Cc1ccc2c(c1O)C[C@@H](C1CCN(CCNC(=O)Nc3ccccc3)CC1)O[C@H]2CN [Example 193, dihydrobromide]
TESTED_SYSTEM: D1 receptor (Homo sapiens, UniProt P21728)
pEC50: 7.37

a: Cc1ccc2c(c1O)C[C@@H](C1CCN(Cc3ccc4ccccc4c3)CC1)O[C@H]2CN [Example 45, dihydrochloride]
b: Cc1ccc2c(c1O)C[C@@H](C1CCN(Cc3cn(C)c4ccccc34)CC1)O[C@H]2CN [Example 90, trihydrochloride]
**Q:** # min-compare on pEC50 between a and b When you have decided, please share the label of that item.
**A:** a
